Consider the following compounds; for each one, report its inhibition.
- test target: Large T antigen (Simian virus 40)
- measurement description: SV40 large T antigen inhibitors, biochemical (AID 1903)
- study conditions: SV40 large T antigen ATPase/helicase inhibition assay; at 20 µM; hits give high values
Hit rate of the full screen: of about 310,000 compounds, about 1,200 (0.39%) were called active. These entries were drawn from the full list. Entries with a potency or affinity are not part of this list.
Numbers only, in %.

Look over these answered cases.
[[record]]
compound = "COc1cc(/C=N\\NC(=O)C2COc3ccccc3O2)cc(OC)c1O (stereo not given)"
test_target = "Large T antigen (Simian virus 40)"
observed_result = 37.5

[[record]]
compound = "O=C(c1cnn2c(C(F)F)cc(-c3ccccc3)nc12)N1CCCCC1c1cccnc1 (stereo not given)"
test_target = "Large T antigen (Simian virus 40)"
observed_result = 1.99

[[record]]
compound = "COC(=O)C1C(=O)c2c([nH]c(C(=O)OC3CCCCC3)c2C)CC1C (stereo not given)"
test_target = "Large T antigen (Simian virus 40)"
observed_result = 0.84

[[record]]
compound = "C/C(O)=C(\\C#N)c1nc2ccccc2[nH]1"
test_target = "Large T antigen (Simian virus 40)"
observed_result = 1.46

[[record]]
compound = "CCC1CCCCN1S(=O)(=O)c1ccc(NC(=O)c2cccnc2)cc1 (stereo not given)"
test_target = "Large T antigen (Simian virus 40)"
observed_result = 16.2

[[record]]
compound = "O=C(Oc1ccc(N(C(=O)c2ccncc2)S(=O)(=O)c2ccc(F)cc2)cc1)c1ccncc1"
test_target = "Large T antigen (Simian virus 40)"
observed_result = 32

[[record]]
compound = "CCOc1cc(/C=C2\\C(=O)N(c3cccc(C(F)(F)F)c3)C(=O)c3ccccc32)ccc1O"
test_target = "Large T antigen (Simian virus 40)"
observed_result = 9.18

[[record]]
compound = "O=C(CS(=O)(=O)c1ccccc1)c1cc2ccccc2oc1=O"
test_target = "Large T antigen (Simian virus 40)"
observed_result = 32.7


Give inhibition for each listed item.
1. COc1ccc(/C=N/NC(=O)C2COc3ccccc3O2)cc1OC (stereo not given)
2. CCON1C(=O)CN(C(=O)OC)C1c1ccc(Cl)cc1Cl (stereo not given)
3. O=c1[nH]c2ccc(F)cc2[nH]c1=O
4. CCc1c(C)nc(N)nc1Cl
5. CC1C(=O)NN=C1C(=O)N/N=C/c1cccs1 (stereo not given)

A:
1: -1.14; 2: 19.9; 3: 22.1; 4: 10.9; 5: 30

Batch request: inhibition for each of the following compounds.
1. CCOC(=O)C(Sc1cc(C)nc(N)n1)C(C)=O (stereo not given)
2. CC(=O)Nc1ccc(SC[C@H](c2ccccc2)N2CCN(CCc3ccccc3)CCC2=O)cc1

A:
1: 7.31; 2: 16.3

====

- test target: Large T antigen (Simian virus 40) (UniProt P03070)
- Sequence (P03070 whole entry, looked up): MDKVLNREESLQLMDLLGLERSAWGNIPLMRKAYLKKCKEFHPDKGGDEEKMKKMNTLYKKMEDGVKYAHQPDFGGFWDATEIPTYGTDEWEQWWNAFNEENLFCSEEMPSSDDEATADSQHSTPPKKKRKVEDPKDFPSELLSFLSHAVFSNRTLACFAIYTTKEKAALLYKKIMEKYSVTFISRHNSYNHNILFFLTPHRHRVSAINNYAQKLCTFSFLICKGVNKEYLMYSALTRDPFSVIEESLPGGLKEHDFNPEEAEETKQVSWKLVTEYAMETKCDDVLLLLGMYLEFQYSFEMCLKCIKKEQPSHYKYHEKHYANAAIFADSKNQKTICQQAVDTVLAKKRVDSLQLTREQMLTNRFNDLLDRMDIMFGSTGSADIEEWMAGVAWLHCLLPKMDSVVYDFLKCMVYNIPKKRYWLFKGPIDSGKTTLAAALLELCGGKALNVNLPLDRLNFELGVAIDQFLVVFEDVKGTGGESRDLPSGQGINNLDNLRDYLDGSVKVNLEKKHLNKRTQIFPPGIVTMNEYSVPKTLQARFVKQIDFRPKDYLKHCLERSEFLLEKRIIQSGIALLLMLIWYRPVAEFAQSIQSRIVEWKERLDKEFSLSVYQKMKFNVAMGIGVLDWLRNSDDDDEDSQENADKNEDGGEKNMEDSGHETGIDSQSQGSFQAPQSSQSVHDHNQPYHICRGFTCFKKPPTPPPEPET
- measurement description: SV40 large T antigen inhibitors, biochemical (AID 1903)
- study conditions: SV40 large T antigen ATPase/helicase inhibition assay; at 20 µM; hits give high values
The campaign covered roughly 310,000 compounds. About 1,200 (0.39%) were called active. The list is a sample of the results. Measured potencies and affinities stand elsewhere.
For each of the compounds below, state its inhibition.
Numbers only, in %.

Give one value of inhibition per listed compound.
1. N=c1n(CCO)c2ccccc2n1CCN1CCCCC1
2. CCCCN1C(=O)/C(=C(/C#N)C(=O)N2CCCC2)c2ccccc21
3. CC(C)C1=Nc2cccc3cccc(c23)N1
4. COc1cccc(-c2nn(C)c3sc(C(=O)NCc4ccco4)cc23)c1
5. Cc1ccc(C)c(S(=O)(=O)N2CCCOC2CNC(=O)C(=O)NCCCn2ccnc2)c1 (configuration not stated)
6. c1ccc2c(NCCCN3CCOCC3)c3ccccc3nc2c1
7. COc1ccc(NC(=S)N2CCC(NC(=O)c3cccc(C)c3)CC2)cc1
8. COc1ccc(OC)c(-n2c(SCC(=O)Nc3cc(C)on3)nnc2-c2c[nH]c3ccccc23)c1

A:
[6.21, 7.04, 31.8, 16.5, 7.3, 3.76, 19.3, -1.81]

Please state inhibition for every compound in the list that follows.
1. c1ccc(C2=Nn3c(nnc3-c3ccco3)SC2)cc1
2. Cc1cccc2cc(CN(CCCN3CCOCC3)Cc3nnnn3C(C)(C)C)c(=O)[nH]c12

A:
1. 10.2
2. 10
